# target.under.test: eOD-GT8 (monomeric ligand) (Human immunodeficiency virus 1, …)
quantity.measured: pKd
Reminder that pKd means the negative base-10 logarithm of the concentration expressed in mol/L.

>  <binder>
g28-D78-12_CLK09 (antibody, V domains shown) VH: QLQLVQSGTEVKKPGASVKVSCKASGYTFTGYFIHWVRQAPGQGLEWMGWLNPIYGGVNYARNFQGRVTMTRDTSISTAYLELKRLKSDDAAVYYCARVAERMIFDVWGQGTMVTVSS VL: DIQMTQSPSSLSASVGDRVTIACQASQDINNYVNWYQQKPGKAPKLLIYDASNLETGVPSRFSGSGSGTDFTFTISSLQPEDIATYYCQQYEFFGGGTKVEIK

>  <pKd>
7.96

$$$$

Next, consider the following binder.
pKd reading for g5-D78-9_CLK19 (antibody, V domains shown) VH: QVQLVQSGAEVKKPGASVKVSCKASGYIFTDYNMHWVRQAPGQGLEWMGWINPRFGGRNIVQKFQGRVTMTRDTSISTAYMELSGLRSDDTAVYFCTPVLAPFRWPFAYWGQGTLVTVSS VL: DIQMTQSPSSLSASVGDRVTITCQASQDINYLNWYQQKPGKAPKLLIYDASNLETGVPSRFSGSGSGTDFTFTISSLQPEDIATYYCQQYAAFGPGTKVDIK : 8.68
